These measurements were taken from paper PMC4447944.

measurement_target: hEPHB6 (Homo sapiens, UniProt O15197)
Construct: purchased DiscoverX
Sequence (O15197 32-1021): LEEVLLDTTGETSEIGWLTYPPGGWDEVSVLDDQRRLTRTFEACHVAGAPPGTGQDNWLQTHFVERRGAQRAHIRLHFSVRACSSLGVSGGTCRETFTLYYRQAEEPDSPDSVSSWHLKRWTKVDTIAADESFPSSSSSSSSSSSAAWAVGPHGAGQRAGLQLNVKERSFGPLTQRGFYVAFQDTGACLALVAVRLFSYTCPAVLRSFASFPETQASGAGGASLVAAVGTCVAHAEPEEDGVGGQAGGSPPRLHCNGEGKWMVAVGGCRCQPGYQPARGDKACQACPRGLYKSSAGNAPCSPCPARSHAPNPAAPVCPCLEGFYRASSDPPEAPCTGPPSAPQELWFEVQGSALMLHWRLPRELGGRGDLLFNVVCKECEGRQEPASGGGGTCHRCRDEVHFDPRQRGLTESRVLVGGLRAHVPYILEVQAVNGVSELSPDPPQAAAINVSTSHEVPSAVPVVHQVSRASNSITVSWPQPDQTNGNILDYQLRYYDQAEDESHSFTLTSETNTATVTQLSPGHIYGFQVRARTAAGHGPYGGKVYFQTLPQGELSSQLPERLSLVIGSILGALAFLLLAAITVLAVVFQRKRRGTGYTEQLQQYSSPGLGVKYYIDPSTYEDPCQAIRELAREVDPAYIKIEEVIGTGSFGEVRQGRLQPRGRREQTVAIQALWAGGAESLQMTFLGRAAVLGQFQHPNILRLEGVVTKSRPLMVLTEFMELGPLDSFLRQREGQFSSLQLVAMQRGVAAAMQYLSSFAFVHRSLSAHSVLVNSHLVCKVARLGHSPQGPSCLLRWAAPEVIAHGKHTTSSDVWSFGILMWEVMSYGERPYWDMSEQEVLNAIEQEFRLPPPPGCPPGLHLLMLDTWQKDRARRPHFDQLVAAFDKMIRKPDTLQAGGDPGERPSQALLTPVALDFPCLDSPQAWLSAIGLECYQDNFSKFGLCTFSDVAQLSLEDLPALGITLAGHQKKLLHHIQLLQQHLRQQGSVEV
method_summary: KINOMEscan
Type: binding
pIC50: −log10 of the molar value.
experimental_readout: pIC50

stdin: Looking for the measured pIC50 of Cc1cn(CCN2CCN(c3ccccc3-c3cc(C#N)cc(C(=O)NCCCN4CCCC4)c3)CC2)c2ccccc12 [LLY-507] , can you help?
stdout: < 4.70

====

measurement_target: hYSK4 (Homo sapiens, UniProt Q56UN5)
Sequence (Q56UN5 1-1328): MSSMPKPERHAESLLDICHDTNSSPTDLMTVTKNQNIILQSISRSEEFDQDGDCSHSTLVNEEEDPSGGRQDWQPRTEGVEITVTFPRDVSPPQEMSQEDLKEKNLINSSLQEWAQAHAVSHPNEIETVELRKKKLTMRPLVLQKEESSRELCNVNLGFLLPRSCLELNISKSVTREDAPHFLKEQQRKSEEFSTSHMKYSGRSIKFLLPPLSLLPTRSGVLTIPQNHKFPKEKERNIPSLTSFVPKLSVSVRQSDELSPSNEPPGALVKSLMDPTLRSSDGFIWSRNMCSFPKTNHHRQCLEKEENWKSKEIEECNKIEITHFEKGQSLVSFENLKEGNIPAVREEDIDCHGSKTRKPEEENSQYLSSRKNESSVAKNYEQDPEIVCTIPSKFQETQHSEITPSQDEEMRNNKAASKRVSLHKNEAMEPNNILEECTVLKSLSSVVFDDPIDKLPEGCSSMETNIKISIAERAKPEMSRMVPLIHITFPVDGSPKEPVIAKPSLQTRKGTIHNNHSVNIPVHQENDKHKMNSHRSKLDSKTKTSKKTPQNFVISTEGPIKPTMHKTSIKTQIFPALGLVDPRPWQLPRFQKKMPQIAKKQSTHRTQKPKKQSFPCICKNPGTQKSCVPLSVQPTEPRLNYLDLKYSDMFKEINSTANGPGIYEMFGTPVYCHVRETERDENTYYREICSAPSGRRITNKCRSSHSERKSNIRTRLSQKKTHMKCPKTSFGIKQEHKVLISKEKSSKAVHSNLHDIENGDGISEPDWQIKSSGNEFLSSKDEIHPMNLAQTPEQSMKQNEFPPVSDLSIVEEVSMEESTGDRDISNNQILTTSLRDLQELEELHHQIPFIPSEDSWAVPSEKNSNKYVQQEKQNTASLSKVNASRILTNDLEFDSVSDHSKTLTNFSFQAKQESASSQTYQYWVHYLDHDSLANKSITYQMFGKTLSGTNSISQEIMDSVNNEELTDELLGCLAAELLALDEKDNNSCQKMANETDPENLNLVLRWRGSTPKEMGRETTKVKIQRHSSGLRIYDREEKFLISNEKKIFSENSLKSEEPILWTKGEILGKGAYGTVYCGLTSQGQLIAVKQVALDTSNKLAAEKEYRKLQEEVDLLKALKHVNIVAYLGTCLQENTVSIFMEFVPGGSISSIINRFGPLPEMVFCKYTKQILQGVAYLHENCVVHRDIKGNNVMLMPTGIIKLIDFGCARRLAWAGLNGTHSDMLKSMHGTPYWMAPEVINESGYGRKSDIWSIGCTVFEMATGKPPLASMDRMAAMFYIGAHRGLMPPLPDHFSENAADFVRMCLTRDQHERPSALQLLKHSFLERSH
pIC50: −log10 of the molar value.
experimental_readout: pIC50

stdin: Looking for the measured pIC50 of Cc1cn(CCN2CCN(c3ccccc3-c3cc(C#N)cc(C(=O)NCCCN4CCCC4)c3)CC2)c2ccccc12 , can you help?
stdout: < 4.70
